System: NB-4
test_method_notes: Cytotoxicity against human NB4 cells after 48 hrs by MTT assay
Format: functional, cell-based
assay_context: NB-4, 48 h
recorded_metric: IC50

Example results:
| mol | IC50 |
| --- | --- |
| COc1ccc(C(=O)Cc2cc(OC)c3c(c2)OC(C)(C)CC3=O)cc1 | > 10 µM |
| COc1cc(/C=C/c2cc(O)c(CCO)c(O)c2)cc(OC)c1 | 4.8 µM |
| CC(C)c1cc(=O)c2c(O)cc(CC(=O)c3ccccc3)cc2o1 | > 10 µM |

response.value for CC(C)CCC(=O)c1c(O)cc(CC(=O)c2ccccc2)cc1O (field: IC50) = 2.1 µM

response.value for CC(=O)Oc1cc(CC(=O)c2ccccc2)cc2oc(C(C)C)cc(=O)c12 (field: IC50) = > 10 µM

response.value for COc1ccc(C(=O)Cc2cc(O)c3c(c2)OCC(C)=CC3=O)cc1 (field: IC50) = > 10 µM

---

System: MCF7
test_method_notes: Cytotoxicity against human MCF7 cells after 48 hrs by MTT assay
Assay type: functional, cell-based
assay_context: MCF7, 48 h
recorded_metric: pIC50
Interpret pIC50 as the negative base-10 log of the concentration measured in mol/L.

| mol | pIC50 |
| --- | --- |
| CC(C)CCC(=O)c1c(O)cc(CC(=O)c2ccccc2)cc1O | 5.26 |
| CC1=CC(=O)c2c(O)cc(CC(=O)c3ccc(O)cc3)cc2OC1 | 5.27 |
| COc1cc(/C=C/c2cc(O)cc(O)c2)cc(O)c1CCO | 5.28 |

Proceeding to the next molecule to report its pIC50.
// assay MCF7, entry COc1cc(/C=C/c2cc(O)c(CCO)c(O)c2)cc(OC)c1 , pIC50 value = 5.23

---

Test system: A549
test_method_notes: Cytotoxicity against human A549 cells after 48 hrs by MTT assay
Type: functional, cell-based
assay_context: A549, 48 h
recorded_metric: IC50 (µM)
Give the number; µM is assumed, so skip it.

| mol | assay_target | IC50 [µM] |
| --- | --- | --- |
| COc1cc(/C=C/c2cc(O)c(CCO)c(O)c2)cc(OC)c1 | A549 | 5.5 |

response.value for OCCc1c(O)cc(/C=C/c2cc(O)cc(O)c2)cc1O (field: IC50) = 8.1

---

Tested on: NB-4
test_method_notes: Cytotoxicity against human NB4 cells after 48 hrs by MTT assay
Assay type: functional, cell-based
assay_context: NB-4, 48 h
Reported pIC50 values are given for each entry in this list.
Interpret pIC50 as the negative base-10 log of the concentration measured in mol/L.

Example results:
| mol | pIC50 |
| --- | --- |
| OCCc1c(O)cc(/C=C/c2cc(O)cc(O)c2)cc1O | 5.26 |
| COc1cc(/C=C/c2cc(O)cc(O)c2)cc(O)c1CCO | 5.48 |

Proceeding to the next molecule to report its pIC50.
response.value for CC1=CC(=O)c2c(O)cc(CC(=O)c3ccc(O)cc3)cc2OC1 (field: pIC50) = 5.12

---

Reported IC50 values are given for each entry in this list.
Test system: A549
test_method_notes: Cytotoxicity against human A549 cells after 48 hrs by MTT assay
Assay type: functional, cell-based
assay_context: A549, 48 h
Give the number; µM is assumed, so skip it.

response.value for CC1=CC(=O)c2c(O)cc(CC(=O)c3ccc(O)cc3)cc2OC1 (field: IC50) = 2.2

response.value for COc1cc(/C=C/c2cc(O)cc(O)c2)cc(O)c1CCO (field: IC50) = 6.5

response.value for COc1ccc(C(=O)Cc2cc(OC)c3c(c2)OC(C)(C)CC3=O)cc1 (field: IC50) = 6.4

response.value for CC(C)CCC(=O)c1c(O)cc(CC(=O)c2ccccc2)cc1O (field: IC50) = 5.2
